Reference for the values: ChEMBL document CHEMBL3804767

Biological target: Metabotropic glutamate receptor 5 (Homo sapiens)
Sequence (P41594 whole entry): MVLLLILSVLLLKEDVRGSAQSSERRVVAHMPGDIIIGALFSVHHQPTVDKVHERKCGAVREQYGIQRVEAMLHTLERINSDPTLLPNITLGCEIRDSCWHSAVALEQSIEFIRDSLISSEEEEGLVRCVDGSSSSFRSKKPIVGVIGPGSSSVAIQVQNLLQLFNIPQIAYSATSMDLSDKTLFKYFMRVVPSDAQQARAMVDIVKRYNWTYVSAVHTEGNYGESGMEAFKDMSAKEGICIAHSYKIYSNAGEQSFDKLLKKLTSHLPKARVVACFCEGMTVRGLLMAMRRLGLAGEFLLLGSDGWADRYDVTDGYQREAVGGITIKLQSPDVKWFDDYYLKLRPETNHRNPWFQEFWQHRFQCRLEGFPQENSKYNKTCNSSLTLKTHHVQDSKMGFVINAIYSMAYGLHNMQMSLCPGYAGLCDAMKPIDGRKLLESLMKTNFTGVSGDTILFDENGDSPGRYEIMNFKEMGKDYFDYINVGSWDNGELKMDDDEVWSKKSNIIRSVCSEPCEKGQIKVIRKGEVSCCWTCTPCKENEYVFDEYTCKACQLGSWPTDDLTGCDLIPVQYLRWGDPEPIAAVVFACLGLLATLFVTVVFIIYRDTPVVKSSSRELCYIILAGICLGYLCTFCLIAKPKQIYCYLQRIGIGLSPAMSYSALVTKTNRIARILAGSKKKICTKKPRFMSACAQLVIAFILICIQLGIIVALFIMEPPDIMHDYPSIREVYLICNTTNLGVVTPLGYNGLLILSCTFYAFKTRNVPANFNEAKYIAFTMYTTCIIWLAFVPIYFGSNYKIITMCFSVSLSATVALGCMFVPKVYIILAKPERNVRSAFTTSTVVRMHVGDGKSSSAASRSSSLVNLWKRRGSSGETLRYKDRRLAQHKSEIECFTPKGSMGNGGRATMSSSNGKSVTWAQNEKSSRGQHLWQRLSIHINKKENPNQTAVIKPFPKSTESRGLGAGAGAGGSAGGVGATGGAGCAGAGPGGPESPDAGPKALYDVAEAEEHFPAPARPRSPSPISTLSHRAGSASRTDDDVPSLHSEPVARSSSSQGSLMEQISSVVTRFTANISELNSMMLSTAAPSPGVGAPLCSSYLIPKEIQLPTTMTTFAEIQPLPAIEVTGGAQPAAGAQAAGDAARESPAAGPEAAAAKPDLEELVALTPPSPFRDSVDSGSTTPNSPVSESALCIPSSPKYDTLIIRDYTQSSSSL
Assay: Displacement of [3H]MPEP in mGlu5 receptor (unknown origin) incubated for 60 mins by liquid scintillation counting method
property-label: pKi
// pKi is dimensionless: -log10 of concentration (M)

Lookup: pKi / Metabotropic glutamate receptor 5 (Homo sapiens) / O=C1N[C@H](c2cccc(C#Cc3ccccc3)c2)[C@@H](c2cccc(F)c2)O1 8.19

###

Assay: Oral bioavailability in rat at 1 mg/kg
Assay type: ADME, organism-based
Settings: in vivo
property-label: bioavailability (%)
Reply numerically in %, unit not repeated.

Entry O=C1N[C@H](c2cncc(C#Cc3ccccc3)c2)[C@@H](c2cc(F)ccc2F)O1 : reported bioavailability = ? 100

###

Target: Metabotropic glutamate receptor 5 (Rattus norvegicus, UniProt P31424)
Sequence (P31424 whole entry): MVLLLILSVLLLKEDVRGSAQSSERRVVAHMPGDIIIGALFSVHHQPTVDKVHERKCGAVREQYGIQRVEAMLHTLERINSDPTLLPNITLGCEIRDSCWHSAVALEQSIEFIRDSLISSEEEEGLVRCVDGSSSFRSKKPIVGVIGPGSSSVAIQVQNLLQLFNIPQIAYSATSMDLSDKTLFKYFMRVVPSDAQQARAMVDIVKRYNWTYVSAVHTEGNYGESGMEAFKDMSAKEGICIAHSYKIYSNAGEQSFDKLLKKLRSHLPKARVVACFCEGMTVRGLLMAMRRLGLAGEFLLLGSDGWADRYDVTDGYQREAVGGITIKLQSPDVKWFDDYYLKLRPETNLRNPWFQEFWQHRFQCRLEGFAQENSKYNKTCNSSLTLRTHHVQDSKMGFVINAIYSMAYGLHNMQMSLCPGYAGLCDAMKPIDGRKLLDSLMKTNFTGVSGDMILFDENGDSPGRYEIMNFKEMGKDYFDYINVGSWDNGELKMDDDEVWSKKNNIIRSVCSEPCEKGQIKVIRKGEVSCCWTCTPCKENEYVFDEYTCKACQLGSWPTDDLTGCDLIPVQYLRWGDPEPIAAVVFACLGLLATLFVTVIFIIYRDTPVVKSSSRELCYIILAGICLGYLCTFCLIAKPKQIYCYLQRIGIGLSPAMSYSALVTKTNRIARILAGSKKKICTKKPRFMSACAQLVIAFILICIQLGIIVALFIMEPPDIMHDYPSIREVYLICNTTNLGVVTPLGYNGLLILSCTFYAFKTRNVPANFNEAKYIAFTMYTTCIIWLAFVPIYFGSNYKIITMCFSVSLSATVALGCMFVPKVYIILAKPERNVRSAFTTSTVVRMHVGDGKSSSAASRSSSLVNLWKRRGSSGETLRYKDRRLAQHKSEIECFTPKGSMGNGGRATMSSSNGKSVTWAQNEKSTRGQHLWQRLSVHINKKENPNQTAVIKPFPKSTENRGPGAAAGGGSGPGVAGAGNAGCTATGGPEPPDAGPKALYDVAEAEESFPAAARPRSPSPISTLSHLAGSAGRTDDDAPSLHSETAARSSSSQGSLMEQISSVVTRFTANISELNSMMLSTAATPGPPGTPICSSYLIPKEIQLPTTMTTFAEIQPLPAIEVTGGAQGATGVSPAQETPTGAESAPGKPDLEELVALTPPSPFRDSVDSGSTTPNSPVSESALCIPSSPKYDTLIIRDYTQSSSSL
Experiment: Agonist activity at mGlu5A receptor in primary rat cortical astrocytes
property-label: EC50 (nM)
Reply numerically in nM, unit not repeated.

Entry O=C1N[C@H](c2cncc(C#Cc3cncc(F)c3)c2)[C@@H](c2ccc(F)cc2)O1 : reported EC50 = ? 310

###

Tested on: Plasma
Experiment: Total plasma concentration in mouse at 0.3 mg/kg, sc
Type: ADME, organism-based
Conditions: in vivo
property-label: concentration (µM)
Reply numerically in µM, unit not repeated.

Entry O=C1N[C@H](c2cncc(C#Cc3ccccc3)c2)[C@@H](c2cc(F)ccc2F)O1 : reported concentration = ? 0.116

###

Test: Oral bioavailability in dog at 1 mg/kg
Type: ADME, organism-based, Canis lupus familiaris
Conditions: in vivo
property-label: bioavailability (%)
Reply numerically in %, unit not repeated.

Entry O=C1N[C@H](c2cncc(C#Cc3ccccc3)c2)[C@@H](c2cc(F)ccc2F)O1 : reported bioavailability = ? 68

###

Assay: AUC (0 to 24 hrs) in rat at 100 mg/kg, po measured on day1
Format: ADME, organism-based
Set-up: time < 24 hr, dose 100 mg/kg, route oral
Conditions: in vivo
property-label: AUC(0-t) at 24 h (µM·h)
Reply numerically in µM·h, unit not repeated.

Entry O=C1N[C@H](c2cncc(C#Cc3ccccc3)c2)[C@@H](c2cc(F)ccc2F)O1 : reported AUC(0-t) at 24 h = ? 751

###

Experiment: Ratio of drug level in brain to plasma in rat at 1 mg/kg, iv
Assay type: ADME, organism-based
Conditions: read-out: BPR
property-label: Kp
Output spec: single numeric token, no unit.

Entry O=C1N[C@H](c2cncc(C#Cc3ccccc3)c2)[C@@H](c2cc(F)ccc2F)O1 : reported Kp = ? 1

###

Let's go through some recorded Ki values for Metabotropic glutamate receptor 5 (Homo sapiens) together.
Reply numerically in nM, unit not repeated.

Some entries whose results are on file:
smiles_representation=O=C1N[C@H](c2cc(C#Cc3ccccc3)ccn2)[C@@H](c2ccccc2)O1 experimental_system="Metabotropic glutamate receptor 5 (Homo sapiens)" reported_value=10
smiles_representation=O=C1N[C@H](c2cncc(C#Cc3cncc(F)c3)c2)[C@@H](c2ccc(F)cc2)O1 experimental_system="Metabotropic glutamate receptor 5 (Homo sapiens)" reported_value=25

Here's the next entry for you.
Lookup: Ki / Metabotropic glutamate receptor 5 (Homo sapiens) / COc1cccc([C@H]2OC(=O)N[C@@H]2c2cccc(C#Cc3ccccc3)c2)c1 13

###

Test: Oral bioavailability in cynomolgus monkey at 1 mg/kg
Assay type: ADME, organism-based, Macaca fascicularis
Settings: in vivo
property-label: bioavailability (%)
Reply numerically in %, unit not repeated.

Entry O=C1N[C@H](c2cncc(C#Cc3ccccc3)c2)[C@@H](c2cc(F)ccc2F)O1 : reported bioavailability = ? 50
